These entries and their values trace back to BindingDB's records for patent US9790180.

Biological target: Histone deacetylase 3 (Homo sapiens, UniProt O15379)
Sequence (O15379 whole entry): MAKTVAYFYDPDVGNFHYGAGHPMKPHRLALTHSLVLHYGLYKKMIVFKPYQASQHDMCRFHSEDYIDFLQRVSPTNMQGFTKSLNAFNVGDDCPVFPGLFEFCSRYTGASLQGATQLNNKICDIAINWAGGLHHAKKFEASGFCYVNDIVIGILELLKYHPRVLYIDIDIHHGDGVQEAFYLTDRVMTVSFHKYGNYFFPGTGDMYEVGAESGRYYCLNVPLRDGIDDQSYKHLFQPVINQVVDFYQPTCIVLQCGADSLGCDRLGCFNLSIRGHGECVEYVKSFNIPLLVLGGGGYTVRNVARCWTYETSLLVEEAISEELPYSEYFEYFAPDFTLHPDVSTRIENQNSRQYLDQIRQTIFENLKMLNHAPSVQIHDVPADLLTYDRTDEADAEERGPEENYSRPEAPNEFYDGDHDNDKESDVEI
pIC50: −log10 of the molar value.
recorded.endpoint: pIC50

P = CC1(Nc2ncc(C(=O)Nc3cc(-c4ccccc4)ccc3N)cn2)CCNCC1 [US9790180, ID 041]
Q = Nc1ccc(-c2ccccc2)cc1NC(=O)c1cnc(NC2CCN(C(=O)Cc3c[nH]c4ccccc34)CC2)nc1 [US9790180, ID 035]
Query :: Sorting ascending by pIC50, which comes first: P or Q ? Please indicate the selected item by its label.
Result :: Q
